- target_under_test: UniProt P05177
- Sequence (P05177 whole entry): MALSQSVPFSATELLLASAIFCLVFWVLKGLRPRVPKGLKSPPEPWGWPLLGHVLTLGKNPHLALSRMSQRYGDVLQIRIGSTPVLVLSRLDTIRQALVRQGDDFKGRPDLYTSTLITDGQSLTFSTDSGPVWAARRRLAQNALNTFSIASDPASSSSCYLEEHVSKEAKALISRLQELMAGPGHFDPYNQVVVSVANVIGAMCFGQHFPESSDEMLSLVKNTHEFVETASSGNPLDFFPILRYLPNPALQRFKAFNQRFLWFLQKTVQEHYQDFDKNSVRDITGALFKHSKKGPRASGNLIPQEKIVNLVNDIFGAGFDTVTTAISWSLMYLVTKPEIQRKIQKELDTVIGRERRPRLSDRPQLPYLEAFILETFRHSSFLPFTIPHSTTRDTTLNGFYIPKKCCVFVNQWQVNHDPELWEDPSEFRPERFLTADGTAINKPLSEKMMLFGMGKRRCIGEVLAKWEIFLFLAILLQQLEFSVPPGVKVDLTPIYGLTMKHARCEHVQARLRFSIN
readout: IC50

Request: Notebook entry, UniProt P05177 assay: IC50 of CN1CCN(CC(=O)Nc2ccc(-c3cccc4c(=O)cc(N5CCOCC5)oc34)c3sc4ccccc4c23)CC1 = ?
Result: > 10 µM

###

- target_under_test: Serine/threonine-protein kinase mTOR (Homo sapiens)
- assay_protocol: Inhibition of mTOR (unknown origin)
readout: pIC50
# log scale: pIC50 equals minus log10 of the concentration in mol/L

Some compounds with known pIC50 results, for comparison:
INSERT INTO measurements (compound, readout, number) VALUES
  ('O=c1cc(N2CCOCC2)oc2c(-c3ccccc3)cccc12 [LY-294002]', 'pIC50', 5.55),
  ('O=c1cc(N2CCOCC2)oc2c(-c3cccc4c3sc3ccccc34)cccc12', 'pIC50', 5.62);

Here is another compound to look at.
Request: Would you kindly share the measured pIC50 for CCN1CCN(CC(=O)Nc2ccc(-c3cccc4c(=O)cc(N5CCOCC5)oc34)c3sc4ccccc4c23)CC1 ?
Result: 5.00

###

- target_under_test: DNA-dependent protein kinase catalytic subunit (Homo sapiens)
- assay_protocol: Inhibition of DNA-PK autophosphorylation at S2056 in human HeLa cells
readout: EC50 (nM)
Output spec: scalar in nM, unitless text.

The cases that follow already have their EC50 on record.
INSERT INTO results (entry_smiles, uom, number) VALUES
  ('CCN1CCN(CC(=O)Nc2ccc(-c3cccc4c(=O)cc(N5CCOCC5)oc34)c3sc4ccccc4c23)CC1', 'nM', 136),
  ('O=C(CN1CCN(CCO)CC1)Nc1ccc(-c2cccc3c(=O)cc(N4CCOCC4)oc23)c2sc3ccccc3c12', 'nM', 109),
  ('CN1CCN(CC(=O)Nc2ccc(-c3cccc4c(=O)cc(N5CCOCC5)oc34)c3sc4ccccc4c23)CC1', 'nM', 426);

Request: Kindly state the measured EC50 obtained for CC(=O)N1CCN(CCOc2ccc(-c3cccc4c(=O)cc(N5CCOCC5)oc34)c3sc4ccccc4c23)CC1 with DNA-dependent protein kinase catalytic subunit (Homo sapiens).
Result: 166

Request: Provide the documented EC50 with DNA-dependent protein kinase catalytic subunit (Homo sapiens) as the system for O=c1cc(N2CCOCC2)oc2c(-c3cccc4c3sc3ccccc34)cccc12
Result: 212

###

- target_under_test: Cytochrome P450 2D6 (Homo sapiens, UniProt P10635)
pIC50: −log10 of the molar value.
readout: pIC50

Request: Item: O=C(CN1CCN(CCO)CC1)Nc1ccc(-c2cccc3c(=O)cc(N4CCOCC4)oc23)c2sc3ccccc3c12 Test system: Cytochrome P450 2D6 (Homo sapiens, UniProt P10635) Read-out: pIC50 Value: ?
Result: < 5.00

###

- target_under_test: Serine/threonine-protein kinase ATR (Homo sapiens, UniProt Q13535)
pIC50: −log10 of the molar value.
# pIC50 annotations

INSERT INTO measurements (entry_smiles, readout, result) VALUES
  ('O=c1cc(N2CCOCC2)oc2c(-c3cccc4c3sc3ccccc34)cccc12', 'pIC50', '< 5.00');

Could you now look at the following molecule, please?
Request: What does the record list as pIC50 for O=c1cc(N2CCOCC2)oc2c(-c3ccccc3)cccc12 ?
Result: < 5.00

###

- target_under_test: DNA-dependent protein kinase catalytic subunit (Homo sapiens, UniProt P78527)
- Sequence (P78527 whole entry): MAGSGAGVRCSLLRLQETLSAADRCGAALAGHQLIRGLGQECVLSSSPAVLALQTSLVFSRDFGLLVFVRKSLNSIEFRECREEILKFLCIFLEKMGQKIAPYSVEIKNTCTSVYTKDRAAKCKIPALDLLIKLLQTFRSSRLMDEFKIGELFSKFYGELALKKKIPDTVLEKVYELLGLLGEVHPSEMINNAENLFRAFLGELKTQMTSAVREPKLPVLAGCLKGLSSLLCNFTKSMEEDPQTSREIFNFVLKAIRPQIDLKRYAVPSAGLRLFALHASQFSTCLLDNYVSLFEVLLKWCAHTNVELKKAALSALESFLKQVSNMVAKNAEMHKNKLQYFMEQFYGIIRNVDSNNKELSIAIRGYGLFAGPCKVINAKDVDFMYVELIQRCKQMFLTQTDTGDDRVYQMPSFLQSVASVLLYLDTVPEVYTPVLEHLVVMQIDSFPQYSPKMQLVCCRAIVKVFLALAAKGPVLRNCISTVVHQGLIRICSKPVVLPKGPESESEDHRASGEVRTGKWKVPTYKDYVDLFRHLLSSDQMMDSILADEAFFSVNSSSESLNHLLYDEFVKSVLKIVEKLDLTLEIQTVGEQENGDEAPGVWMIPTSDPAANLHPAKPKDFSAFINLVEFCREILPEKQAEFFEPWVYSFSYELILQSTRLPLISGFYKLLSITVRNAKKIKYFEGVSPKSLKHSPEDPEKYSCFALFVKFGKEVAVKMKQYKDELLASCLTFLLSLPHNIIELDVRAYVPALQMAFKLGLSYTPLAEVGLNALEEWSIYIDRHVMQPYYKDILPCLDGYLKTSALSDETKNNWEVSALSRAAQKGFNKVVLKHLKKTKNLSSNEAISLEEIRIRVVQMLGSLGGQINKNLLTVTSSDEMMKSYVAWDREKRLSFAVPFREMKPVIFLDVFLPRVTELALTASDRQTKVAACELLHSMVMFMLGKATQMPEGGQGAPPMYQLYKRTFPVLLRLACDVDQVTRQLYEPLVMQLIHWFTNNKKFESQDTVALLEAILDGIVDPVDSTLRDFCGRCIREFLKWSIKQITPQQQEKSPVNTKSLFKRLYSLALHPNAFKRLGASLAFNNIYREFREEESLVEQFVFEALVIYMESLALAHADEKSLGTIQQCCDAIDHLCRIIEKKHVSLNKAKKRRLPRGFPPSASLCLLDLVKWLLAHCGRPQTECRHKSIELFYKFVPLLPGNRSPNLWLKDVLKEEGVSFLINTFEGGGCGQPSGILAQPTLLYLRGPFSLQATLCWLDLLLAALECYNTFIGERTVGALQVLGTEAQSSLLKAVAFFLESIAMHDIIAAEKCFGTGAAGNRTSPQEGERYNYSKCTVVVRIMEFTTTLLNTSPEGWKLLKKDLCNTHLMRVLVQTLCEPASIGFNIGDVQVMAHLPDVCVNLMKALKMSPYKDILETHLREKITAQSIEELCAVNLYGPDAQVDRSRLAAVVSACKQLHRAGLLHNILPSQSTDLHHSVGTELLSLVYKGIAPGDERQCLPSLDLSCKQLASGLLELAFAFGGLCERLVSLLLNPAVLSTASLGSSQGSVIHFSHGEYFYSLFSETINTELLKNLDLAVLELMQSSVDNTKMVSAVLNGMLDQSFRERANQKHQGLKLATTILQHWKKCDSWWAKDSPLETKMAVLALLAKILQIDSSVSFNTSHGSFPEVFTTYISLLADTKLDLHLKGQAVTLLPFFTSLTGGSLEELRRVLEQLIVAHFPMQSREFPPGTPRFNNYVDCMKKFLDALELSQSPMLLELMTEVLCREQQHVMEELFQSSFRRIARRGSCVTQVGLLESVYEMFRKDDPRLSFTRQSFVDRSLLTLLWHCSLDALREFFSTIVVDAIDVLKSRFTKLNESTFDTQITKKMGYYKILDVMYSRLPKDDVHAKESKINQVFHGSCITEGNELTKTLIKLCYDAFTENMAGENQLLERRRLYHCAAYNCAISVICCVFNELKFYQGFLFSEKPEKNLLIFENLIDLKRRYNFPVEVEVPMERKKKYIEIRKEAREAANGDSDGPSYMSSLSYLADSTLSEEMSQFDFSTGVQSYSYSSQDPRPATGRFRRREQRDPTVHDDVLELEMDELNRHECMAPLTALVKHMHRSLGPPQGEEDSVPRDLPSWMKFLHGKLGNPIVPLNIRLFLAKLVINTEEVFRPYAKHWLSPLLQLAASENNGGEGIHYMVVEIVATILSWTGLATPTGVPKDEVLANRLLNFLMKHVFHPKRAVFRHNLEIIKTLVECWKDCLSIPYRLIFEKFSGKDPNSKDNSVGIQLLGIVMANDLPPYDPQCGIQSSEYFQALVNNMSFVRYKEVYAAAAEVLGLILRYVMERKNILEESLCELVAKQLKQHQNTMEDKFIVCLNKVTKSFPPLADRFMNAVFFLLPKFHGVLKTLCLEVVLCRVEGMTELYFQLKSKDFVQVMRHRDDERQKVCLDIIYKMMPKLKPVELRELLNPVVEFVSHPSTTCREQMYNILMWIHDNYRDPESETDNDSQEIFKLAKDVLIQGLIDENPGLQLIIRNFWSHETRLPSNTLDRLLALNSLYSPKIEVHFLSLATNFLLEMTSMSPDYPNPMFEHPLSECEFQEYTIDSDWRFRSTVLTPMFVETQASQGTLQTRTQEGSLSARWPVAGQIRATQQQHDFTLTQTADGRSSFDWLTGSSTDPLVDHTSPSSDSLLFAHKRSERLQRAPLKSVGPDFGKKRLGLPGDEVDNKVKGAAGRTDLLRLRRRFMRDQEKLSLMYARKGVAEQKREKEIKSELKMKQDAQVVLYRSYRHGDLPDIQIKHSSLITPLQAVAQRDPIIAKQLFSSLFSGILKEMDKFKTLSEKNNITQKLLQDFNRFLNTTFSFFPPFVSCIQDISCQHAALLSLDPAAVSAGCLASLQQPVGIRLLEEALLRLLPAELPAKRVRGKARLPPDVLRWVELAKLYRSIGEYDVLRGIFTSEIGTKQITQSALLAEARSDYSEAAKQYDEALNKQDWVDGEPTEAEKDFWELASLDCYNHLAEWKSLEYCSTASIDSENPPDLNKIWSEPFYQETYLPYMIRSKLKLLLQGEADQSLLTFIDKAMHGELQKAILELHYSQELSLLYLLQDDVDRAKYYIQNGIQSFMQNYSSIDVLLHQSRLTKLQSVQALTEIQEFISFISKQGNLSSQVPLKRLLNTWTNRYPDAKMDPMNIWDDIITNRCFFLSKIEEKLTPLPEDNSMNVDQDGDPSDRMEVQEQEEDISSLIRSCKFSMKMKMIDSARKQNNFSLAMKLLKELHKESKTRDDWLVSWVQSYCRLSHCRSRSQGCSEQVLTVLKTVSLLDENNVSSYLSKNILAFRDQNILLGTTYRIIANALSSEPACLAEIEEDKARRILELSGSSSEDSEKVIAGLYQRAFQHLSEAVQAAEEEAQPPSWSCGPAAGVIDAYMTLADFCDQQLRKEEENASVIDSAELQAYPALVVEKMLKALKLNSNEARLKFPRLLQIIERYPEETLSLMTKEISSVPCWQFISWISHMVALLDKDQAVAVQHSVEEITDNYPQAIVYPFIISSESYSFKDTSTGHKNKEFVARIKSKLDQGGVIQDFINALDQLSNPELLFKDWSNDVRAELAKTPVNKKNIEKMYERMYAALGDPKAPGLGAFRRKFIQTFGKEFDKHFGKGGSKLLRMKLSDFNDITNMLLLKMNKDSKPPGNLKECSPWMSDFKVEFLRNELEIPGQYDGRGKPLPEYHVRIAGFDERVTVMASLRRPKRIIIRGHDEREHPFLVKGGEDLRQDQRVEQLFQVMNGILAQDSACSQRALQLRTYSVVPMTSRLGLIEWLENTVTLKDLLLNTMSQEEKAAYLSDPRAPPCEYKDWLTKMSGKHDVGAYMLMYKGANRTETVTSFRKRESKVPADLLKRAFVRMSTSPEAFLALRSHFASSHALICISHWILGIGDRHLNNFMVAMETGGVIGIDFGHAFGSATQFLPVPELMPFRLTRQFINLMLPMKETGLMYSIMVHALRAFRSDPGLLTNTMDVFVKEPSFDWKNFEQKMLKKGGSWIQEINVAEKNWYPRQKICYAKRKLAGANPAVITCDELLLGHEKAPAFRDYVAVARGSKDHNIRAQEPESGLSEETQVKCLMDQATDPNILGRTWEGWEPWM
- assay_protocol: Inhibition of human DNA-PK using GST-tagged p53N66 as substrate after 1 hr by ELISA-based chemiluminiscence assay
readout: IC50 (nM)
Numbers only; they are read as nM.

INSERT INTO results (entry_smiles, target_under_test, number) VALUES
  ('CN(CCOc1ccc(-c2cccc3c(=O)cc(N4CCOCC4)oc23)c2sc3ccccc3c12)CC(N)=O', 'DNA-dependent protein kinase catalytic subunit (Homo sapiens, UniProt P78527)', 3),
  ('O=C(CCN1CCN(c2ccc(F)cc2)CC1)Nc1ccc(-c2cccc3c(=O)cc(N4CCOCC4)oc23)c2sc3ccccc3c12', 'DNA-dependent protein kinase catalytic subunit (Homo sapiens, UniProt P78527)', 30),
  ('O=C(CCNCc1ccncc1)Nc1ccc(-c2cccc3c(=O)cc(N4CCOCC4)oc23)c2sc3ccccc3c12', 'DNA-dependent protein kinase catalytic subunit (Homo sapiens, UniProt P78527)', 12);

Next compound, please.
Request: # query: IC50 | item CN1CCN(CCOc2ccc(-c3cccc4c(=O)cc(N5CCOCC5)oc34)c3sc4ccccc4c23)CC1 | system: DNA-dependent protein kinase catalytic subunit (Homo sapiens, UniProt P78527)
Result: 7

###

# pIC50 listing for each entry below
- target_under_test: Cytochrome P450 2C9 (Homo sapiens, UniProt P11712)
- Sequence (P11712 whole entry): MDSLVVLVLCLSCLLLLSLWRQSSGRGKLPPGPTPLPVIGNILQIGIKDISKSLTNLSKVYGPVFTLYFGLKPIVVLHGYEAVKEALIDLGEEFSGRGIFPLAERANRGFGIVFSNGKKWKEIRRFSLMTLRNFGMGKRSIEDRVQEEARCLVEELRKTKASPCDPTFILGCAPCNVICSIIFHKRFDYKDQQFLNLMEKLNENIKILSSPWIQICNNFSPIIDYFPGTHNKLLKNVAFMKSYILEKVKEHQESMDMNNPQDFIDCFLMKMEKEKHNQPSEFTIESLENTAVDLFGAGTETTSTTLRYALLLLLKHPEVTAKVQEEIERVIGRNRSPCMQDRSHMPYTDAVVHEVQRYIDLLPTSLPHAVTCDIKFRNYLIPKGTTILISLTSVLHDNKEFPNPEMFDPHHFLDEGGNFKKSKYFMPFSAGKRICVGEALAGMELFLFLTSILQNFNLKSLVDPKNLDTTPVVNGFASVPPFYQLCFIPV
- assay_protocol: Inhibition of CYP2C9 (unknown origin)
- Format: ADME
pIC50: −log10 of the molar value.

INSERT INTO assay_data (entry_smiles, target_under_test, readout, result) VALUES
  ('CCN1CCN(CC(=O)Nc2ccc(-c3cccc4c(=O)cc(N5CCOCC5)oc34)c3sc4ccccc4c23)CC1', 'Cytochrome P450 2C9 (Homo sapiens, UniProt P11712)', 'pIC50', '< 5.00');

# evaluate next
Request: Could you tell me which pIC50 is on file for CN1CCN(CC(=O)Nc2ccc(-c3cccc4c(=O)cc(N5CCOCC5)oc34)c3sc4ccccc4c23)CC1 ?
Result: < 5.00

###

- target_under_test: DNA-dependent protein kinase catalytic subunit (Homo sapiens, UniProt P78527)
- assay_protocol: Inhibition of human DNA-PK using GST-tagged p53N66 as substrate after 1 hr by ELISA-based chemiluminiscence assay
Catalogue of molecules with associated pIC50
Kindly note that pIC50 refers to -log10 of the concentration in mol/L and answer with the value alone.

The examples below pair each entry with its known result.
INSERT INTO measurements (molecule, readout, number) VALUES
  ('O=C(CN1CCN(c2ccccn2)CC1)Nc1ccc(-c2cccc3c(=O)cc(N4CCOCC4)oc23)c2sc3ccccc3c12', 'pIC50', 8.15),
  ('CN(C)CCN(C)CCOc1ccc(-c2cccc3c(=O)cc(N4CCOCC4)oc23)c2sc3ccccc3c12', 'pIC50', 8.30),
  ('O=C(CN(CCO)CCO)Nc1ccc(-c2cccc3c(=O)cc(N4CCOCC4)oc23)c2sc3ccccc3c12', 'pIC50', 8.22);

Request: Looking for the measured pIC50 of O=C(CCN1CCOCC1)Nc1ccc(-c2cccc3c(=O)cc(N4CCOCC4)oc23)c2sc3ccccc3c12 , can you help?
Result: 7.39

Request: Entry CC(=O)N1CCN(CC(=O)Nc2ccc(-c3cccc4c(=O)cc(N5CCOCC5)oc34)c3sc4ccccc4c23)CC1 has what pIC50?
Result: 8.30

Request: May I ask what pIC50 has been recorded for CN(C)CCN1CCN(CCC(=O)Nc2ccc(-c3cccc4c(=O)cc(N5CCOCC5)oc34)c3sc4ccccc4c23)CC1 ?
Result: 8.00

Request: Record request: pIC50 value, item O=C(CCNCCN1CCCCC1)Nc1ccc(-c2cccc3c(=O)cc(N4CCOCC4)oc23)c2sc3ccccc3c12
Result: 7.48

Request: Find the recorded pIC50 belonging to O=C(CCNCC1CCCO1)Nc1ccc(-c2cccc3c(=O)cc(N4CCOCC4)oc23)c2sc3ccccc3c12 (stereo unspecified) and report it.
Result: 8.15

Request: // returns reported pIC50 for input O=C(CNCCN1CCCCC1)Nc1ccc(-c2cccc3c(=O)cc(N4CCOCC4)oc23)c2sc3ccccc3c12
Result: 7.21

Request: Could you share which pIC50 value was measured for O=c1cc(N2CCOCC2)oc2c(-c3ccc(OCCN4CCOCC4)c4c3sc3ccccc34)cccc12 ?
Result: 8.10

Request: Could you tell me which pIC50 is on file for O=C(CCN1CCCCCC1)Nc1ccc(-c2cccc3c(=O)cc(N4CCOCC4)oc23)c2sc3ccccc3c12 ?
Result: 7.96

Request: Recorded pIC50 of O=C(CNCCCN1CCOCC1)Nc1ccc(-c2cccc3c(=O)cc(N4CCOCC4)oc23)c2sc3ccccc3c12 , please.
Result: 7.89

Request: Give the measured pIC50 of COC(=O)[C@H](CO)NC(=O)COc1ccc(-c2cccc3c(=O)cc(N4CCOCC4)oc23)c2sc3ccccc3c12 .
Result: 8.22

###

- target_under_test: DNA-dependent protein kinase catalytic subunit (Homo sapiens, UniProt P78527)
- assay_protocol: Inhibition of human DNA-PK using GST-tagged p53N66 as substrate after 1 hr by ELISA-based chemiluminiscence assay
readout: pIC50
pIC50 here is simply -log10 of the concentration when that concentration is written in mol/L.

Some solved cases for reference:
INSERT INTO results (compound, readout, number) VALUES
  ('CN(C)CCN(C)C(=O)COc1ccc(-c2cccc3c(=O)cc(N4CCOCC4)oc23)c2sc3ccccc3c12', 'pIC50', 7.28),
  ('CN1CCCN(C(=O)COc2ccc(-c3cccc4c(=O)cc(N5CCOCC5)oc34)c3sc4ccccc4c23)CC1', 'pIC50', 7.36),
  ('O=C(CCN1CCN(CCOCCO)CC1)Nc1ccc(-c2cccc3c(=O)cc(N4CCOCC4)oc23)c2sc3ccccc3c12', 'pIC50', 7.54),
  ('O=C(CCNCCCN1CCOCC1)Nc1ccc(-c2cccc3c(=O)cc(N4CCOCC4)oc23)c2sc3ccccc3c12', 'pIC50', 8.05),
  ('COCCN(CCOC)CC(=O)Nc1ccc(-c2cccc3c(=O)cc(N4CCOCC4)oc23)c2sc3ccccc3c12', 'pIC50', 7.74);

Pending compound:
Request: Dear colleague, I am looking for the recorded pIC50 of the following compound: O=C(CCN1CCN(CCO)CC1)Nc1ccc(-c2cccc3c(=O)cc(N4CCOCC4)oc23)c2sc3ccccc3c12
Result: 7.54
